In this section we review reported Population Normal (%) values for a set of molecules.
System: Fibroblast
protocol.text: Multiplex assay against human fibroblast
Type: toxicity, cell-based
condition.summary: 24 h, 10 µM, compound concentration 10 uM, replicate 1
observable: Population Normal (%)

>  <molecule>
CC(=O)c1cc(-c2cc(C(=O)NC3CC3)ccc2C)c2ncccn12

>  <quantity.unit>
%

>  <reported>
84

$$$$
>  <molecule>
COc1cc2c(Nc3ccc(NC(=O)c4ccccc4)cc3)ncnc2cc1OCCCN1CCOCC1

>  <quantity.unit>
%

>  <reported>
77

$$$$
>  <molecule>
CN(C)CCOc1ccc(-c2nc(-c3ccncc3)c(-c3ccc4c(c3)CC/C4=N\O)[nH]2)cc1 [SB590885]

>  <quantity.unit>
%

>  <reported>
85

$$$$
>  <molecule>
Nc1ccc(C(=O)Nc2cccc(-c3nc(N4CCOCC4)c4oc5ncccc5c4n3)c2)cn1

>  <quantity.unit>
%

>  <reported>
53

$$$$
>  <molecule>
Cc1nc(Cc2cccc(C(F)(F)F)c2)sc1-c1ccc(C(N)=O)nc1 [TP-024n]

>  <quantity.unit>
%

>  <reported>
86

$$$$
>  <molecule>
CNC(=O)c1cc(Oc2ccc(NC(=O)Nc3cc(C(C)(C)C)nn3-c3ccc4ncccc4c3)c(F)c2)ccn1 [REBASTINIB]

>  <quantity.unit>
%

>  <reported>
85

$$$$
>  <molecule>
COc1ccc(NS(=O)(=O)c2sc3ccc(Cl)cc3c2C)cc1N1CCNCC1.Cl

>  <quantity.unit>
%

>  <reported>
74

$$$$
>  <molecule>
CCOc1cc2ncc(C#N)c(Nc3ccc(OCc4cccc(F)c4)c(Cl)c3)c2cc1NC(=O)/C=C/CN(C)C [HKI-357]

>  <quantity.unit>
%

>  <reported>
80

$$$$
>  <molecule>
Cl.Cl.NC1(c2ccc(-c3nc4ccn5c(=O)[nH]nc5c4cc3-c3ccccc3)cc2)CCC1

>  <quantity.unit>
%

>  <reported>
46

$$$$
>  <molecule>
Cl.Cl.Nc1ncnc2c1c(-c1cccc(OCc3ccccc3)c1)cn2[C@H]1C[C@@H](CN2CCC2)C1

>  <quantity.unit>
%

>  <reported>
51

$$$$
>  <molecule>
CNc1oc(-c2cccc3ccccc23)nc1C#N

>  <quantity.unit>
%

>  <reported>
33

$$$$
>  <molecule>
CCCn1c(=O)c2[nH]c(C34CC5CC(CC3C5)C4)nc2n(CCC)c1=O [ROLOFYLLINE]

>  <quantity.unit>
%

>  <reported>
86

$$$$
>  <molecule>
COc1cc2c(NC3CCN(C(C)C)CC3)nc(N3CCC(F)(F)CC3)nc2cc1OCCCN1CCCC1

>  <quantity.unit>
%

>  <reported>
62

$$$$
>  <molecule>
c1ccc2oc(-c3csc(C4CCN(Cc5nc6ncccc6[nH]5)CC4)n3)cc2c1

>  <quantity.unit>
%

>  <reported>
88

$$$$
>  <molecule>
CC(C)(C)c1cnc(CSc2cnc(NC(=O)C3CCNCC3)s2)o1 [BMS-387032]

>  <quantity.unit>
%

>  <reported>
91

$$$$
>  <molecule>
N#Cc1cnc(Nc2cc(NC[C@H]3CNCCO3)c(C(F)(F)F)cn2)cn1 [SRA-737]

>  <quantity.unit>
%

>  <reported>
81

$$$$
>  <molecule>
CN(C)C/C=C/C(=O)Nc1cc2c(Nc3ccc(F)c(Cl)c3)ncnc2cc1O[C@H]1CCOC1.O=C(O)/C=C\C(=O)O.O=C(O)/C=C\C(=O)O [AFATINIB DIMALEATE]

>  <quantity.unit>
%

>  <reported>
61

$$$$
>  <molecule>
Nc1nc2c(c(N3CCNCC3)n1)CCC1=C2[C@@H]2CCCC[C@@H]2O1

>  <quantity.unit>
%

>  <reported>
55

$$$$
